target: ZFP SBS#211 (synthetic); assay: EMSA; settings: tags: MBP fusion
Sequence (chain, as listed by the source): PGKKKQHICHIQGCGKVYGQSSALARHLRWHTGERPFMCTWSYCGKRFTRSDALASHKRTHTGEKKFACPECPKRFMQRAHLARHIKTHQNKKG
ENDPOINT_NAME: pKd
The quantity pKd is defined as the negative base-10 logarithm of the molar concentration.

Identify pKd associated with the binder GGAGTGGTT (dsDNA) DNA 1: GGAGTGGTT DNA 2: AACCACTCC
6.85
